Kindly state pEC50 for each of the entries shown.
Target: T1, human PSMA on PSMA-expressing cells (human, UniProt Q04609 1-750)
T1 construct: Cell line is named under assay or readout in each row; also called B16F10.9/hPSMA; B16F10.9/PSMA
T1 sequence (Q04609 whole entry): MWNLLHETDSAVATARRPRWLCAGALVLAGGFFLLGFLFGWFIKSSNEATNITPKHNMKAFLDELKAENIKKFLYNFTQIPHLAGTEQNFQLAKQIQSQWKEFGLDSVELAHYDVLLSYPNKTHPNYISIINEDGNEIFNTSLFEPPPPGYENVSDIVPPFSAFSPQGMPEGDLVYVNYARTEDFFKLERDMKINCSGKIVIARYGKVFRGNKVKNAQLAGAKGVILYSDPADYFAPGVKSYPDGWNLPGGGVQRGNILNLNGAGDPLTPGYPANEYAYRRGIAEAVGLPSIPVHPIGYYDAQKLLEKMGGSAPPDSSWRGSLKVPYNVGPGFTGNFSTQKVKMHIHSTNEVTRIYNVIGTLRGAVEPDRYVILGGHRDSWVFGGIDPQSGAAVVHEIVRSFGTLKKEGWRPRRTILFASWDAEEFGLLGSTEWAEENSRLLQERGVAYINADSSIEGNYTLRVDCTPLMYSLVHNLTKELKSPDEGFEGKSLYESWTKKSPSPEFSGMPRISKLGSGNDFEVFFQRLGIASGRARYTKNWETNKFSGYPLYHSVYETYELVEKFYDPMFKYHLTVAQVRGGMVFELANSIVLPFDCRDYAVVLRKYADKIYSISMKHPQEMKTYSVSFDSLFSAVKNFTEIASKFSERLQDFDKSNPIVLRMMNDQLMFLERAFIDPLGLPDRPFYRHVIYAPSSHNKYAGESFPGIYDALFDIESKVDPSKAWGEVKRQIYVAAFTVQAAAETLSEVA
Experiment: FACS on B16F10.9/PSMA cells
Answers are plain numbers, as −log10 of the molar value.

Worked cases, answers included:
binder	readout-number
BSPSMA/CD3-1600 (bispecific antibody, IgG4, V domains shown, modified (chimeric) IgG4 Fc domain; also called PSMA-VH-11810 x CD3-VH-G16) VH 1: QVQLVESGGGVVQPGRSLRLSCAASGFTFSSYGMHWVRQAPGKGLEWVAVISYAGNNKYYADSVKGRFTVSRDNSKKTLYLQMNSLRSEDTAVYYCAKDSYYDFLTDPDVLDIWGQGTMVTVSS VH 2: EVQLVESGGGLVQPGRSLRLSCAASGFTFDDYSMHWVRQAPGKGLEWVSGISWNSGSKGYADSVKGRFTISRDNAKNSLYLQMNSLRAEDTALYYCAKDGSGYGKFYHYGMDVWGQGTTVTVSS VL: DIQMTQSPSSLSASVGDSVTITCRASQSINNYLNWYQQKPGKAPKLLIYTASSLLSGVPSRFSGSGSGTDFTLTISGLHPEDFATYFCQQSFSTPPITFGQGTRLDIK	8.99
BSPSMA/CD3-1300 (bispecific antibody, IgG4, V domains shown, modified (chimeric) IgG4 Fc domain; also called PSMA-VH-11810 x CD3-VH-G13) VH 1: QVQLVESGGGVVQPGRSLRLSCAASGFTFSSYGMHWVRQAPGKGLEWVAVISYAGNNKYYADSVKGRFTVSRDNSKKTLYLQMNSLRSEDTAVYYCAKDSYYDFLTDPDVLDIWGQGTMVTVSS VH 2: EVQLVESGGGLVQPGRSLRLSCAASGFTFDDYSMHWVRQAPGKGLEWVSGISWNSGSIGYADSVKGRFTISRDNAKNSLYLQMNSLRAEDTALYYCAKYGSGYGKFYYYGLDVWGQGTTVTVSS VL: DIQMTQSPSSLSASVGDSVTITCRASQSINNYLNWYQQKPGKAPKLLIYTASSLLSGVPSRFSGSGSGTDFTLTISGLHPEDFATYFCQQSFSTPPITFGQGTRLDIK	8.90
BSPSMA/CD3-1100 (bispecific antibody, IgG4, V domains shown, modified (chimeric) IgG4 Fc domain; also called PSMA-VH-11810 x CD3-VH-G11) VH 1: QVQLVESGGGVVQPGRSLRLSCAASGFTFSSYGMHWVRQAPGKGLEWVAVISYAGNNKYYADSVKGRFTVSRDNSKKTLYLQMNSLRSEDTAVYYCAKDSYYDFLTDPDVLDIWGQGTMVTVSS VH 2: EVQLVESGGGLVQPGRSLRLSCAASGFTFDDYSMHWVRQAPGKGLEWVSGISWNSGSKGYADSVKGRFTISRDNAKNSLYLQMNSLRAEDTALYYCAKYGSGYGKFYHYGMDVWGQGTTVTVSS VL: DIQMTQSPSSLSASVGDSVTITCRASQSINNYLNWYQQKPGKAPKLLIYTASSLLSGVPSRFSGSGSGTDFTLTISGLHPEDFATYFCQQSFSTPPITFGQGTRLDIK	8.99

Provide pEC50 value for the following binder: BSPSMA/CD3-400 (bispecific antibody, IgG4, V domains shown, modified (chimeric) IgG4 Fc domain; also called PSMA-VH-11810 x CD3-VH-G4) VH 1: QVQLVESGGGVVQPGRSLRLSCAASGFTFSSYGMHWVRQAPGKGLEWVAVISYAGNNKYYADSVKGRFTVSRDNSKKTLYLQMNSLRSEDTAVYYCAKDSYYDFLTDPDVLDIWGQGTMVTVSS VH 2: EVQLVESGGGLVQPGRSLRLSCAASGFTFDDYAMHWVRQAPGKGLEWVSGISWNSGSIGYADSVKGRFTISRDNAKNSLYLQMNSLRAEDTALYYCAKDGSGYGKFYYYGMDVWGQGTTVTVSS VL: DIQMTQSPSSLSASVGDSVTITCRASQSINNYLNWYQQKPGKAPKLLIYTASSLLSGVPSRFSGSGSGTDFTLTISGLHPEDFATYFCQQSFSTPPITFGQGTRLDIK
8.76
